Origin of the recorded values: ChEMBL document CHEMBL5518188

# assayRemarks: Apparent volume of distribution in BALB/c mouse at 10 mg/kg, iv
# Type: ADME, organism-based
# conditionNotes: in vivo, read-out: Vz
readout: Vd (L/kg)

(I) Nc1n[nH]c(=O)c2c1c(-c1ccc3c(c1)CCN3C(=O)Cc1cccc(C(F)(F)F)c1)cn2CC1CC1
(II) CC1(Cn2cc(-c3ccc4c(c3)CCN4C(=O)Cc3cccc(OC(F)(F)F)c3)c3c(N)n[nH]c(=O)c32)COC1
// query Problem: Given the entries I and II , determine which has the lower reported Vd. Lab note: record the label of whichever item you select.
// result II

====

# assaySystem: Receptor-interacting serine/threonine-protein kinase 1 (Homo sapiens)
# Sequence (Q13546 whole entry): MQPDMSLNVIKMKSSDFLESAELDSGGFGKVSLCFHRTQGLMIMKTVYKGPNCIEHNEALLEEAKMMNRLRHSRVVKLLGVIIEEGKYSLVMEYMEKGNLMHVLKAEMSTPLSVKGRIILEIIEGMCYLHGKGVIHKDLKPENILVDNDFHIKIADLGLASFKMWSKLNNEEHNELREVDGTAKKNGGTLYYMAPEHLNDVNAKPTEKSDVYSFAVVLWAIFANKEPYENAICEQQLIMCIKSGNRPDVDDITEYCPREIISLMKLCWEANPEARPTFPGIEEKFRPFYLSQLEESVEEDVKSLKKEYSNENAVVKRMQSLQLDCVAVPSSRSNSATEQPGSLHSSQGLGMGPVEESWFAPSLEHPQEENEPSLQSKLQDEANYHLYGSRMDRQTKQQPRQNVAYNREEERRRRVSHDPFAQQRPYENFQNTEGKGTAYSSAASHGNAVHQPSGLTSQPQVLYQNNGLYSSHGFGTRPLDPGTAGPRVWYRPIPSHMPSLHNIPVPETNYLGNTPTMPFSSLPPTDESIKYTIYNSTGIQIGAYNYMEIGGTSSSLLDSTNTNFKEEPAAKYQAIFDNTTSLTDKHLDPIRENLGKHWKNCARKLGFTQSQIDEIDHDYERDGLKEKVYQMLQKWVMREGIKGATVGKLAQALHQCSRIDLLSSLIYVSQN
readout: IC50 (nM)

Examples with their reported IC50 follow.
>>> valueobserved("Nc1n[nH]c(=O)c2c1c(-c1ccc3c(c1)CCN3C(=O)Cc1cccc(OC(F)(F)F)c1)nn2CC1COC1")
73.7
>>> valueobserved("CCn1nc(-c2ccc3c(c2)CCN3C(=O)CCc2cccc(C(F)(F)F)c2)c2c(N)n[nH]c(=O)c21")
111

(1) Nc1n[nH]c(=O)c2c1c(-c1ccc3c(c1)CCN3C(=O)Cc1cccc(C(F)(F)F)c1)cn2CC1CC1
(2) CC1(Cn2cc(-c3ccc4c(c3)CCN4C(=O)Cc3cccc(C(F)(F)F)c3)c3c(N)n[nH]c(=O)c32)COC1
// query Which has the higher IC50, 1 or 2 ? Write the label of whichever entry you select.
// result 1

====

# assaySystem: Receptor-interacting serine/threonine-protein kinase 1 (Homo sapiens)
# Sequence (Q13546 whole entry): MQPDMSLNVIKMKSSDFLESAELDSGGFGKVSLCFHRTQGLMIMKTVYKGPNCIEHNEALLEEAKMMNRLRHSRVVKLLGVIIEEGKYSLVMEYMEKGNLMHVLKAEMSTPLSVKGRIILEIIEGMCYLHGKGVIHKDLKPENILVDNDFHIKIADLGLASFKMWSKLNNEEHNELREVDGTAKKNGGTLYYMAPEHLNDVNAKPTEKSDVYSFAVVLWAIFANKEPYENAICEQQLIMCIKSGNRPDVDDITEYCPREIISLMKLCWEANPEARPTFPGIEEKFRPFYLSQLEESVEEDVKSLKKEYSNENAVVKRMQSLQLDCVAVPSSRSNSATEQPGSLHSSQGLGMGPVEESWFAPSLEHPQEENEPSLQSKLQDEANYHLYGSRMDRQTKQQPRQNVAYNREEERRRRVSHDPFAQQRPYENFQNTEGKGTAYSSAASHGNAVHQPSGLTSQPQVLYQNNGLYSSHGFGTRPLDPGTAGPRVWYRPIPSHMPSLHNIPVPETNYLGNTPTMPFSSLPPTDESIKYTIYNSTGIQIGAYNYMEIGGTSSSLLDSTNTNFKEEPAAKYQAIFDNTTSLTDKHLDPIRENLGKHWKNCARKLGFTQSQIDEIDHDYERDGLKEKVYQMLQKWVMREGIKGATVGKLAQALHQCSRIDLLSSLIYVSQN
readout: IC50 (nM)

Consider the following illustrative entries.
>>> valueobserved("NC(=O)c1cncc(-c2ccc3c(c2)CCN3C(=O)Cc2cccc(OC(F)(F)F)c2)c1")
157
>>> valueobserved("Nc1n[nH]c(=O)c2c1c(-c1ccc3c(c1)CCN3C(=O)Cc1cccc(OC(F)(F)F)c1)nn2CC1CCCC1")
95.9
>>> valueobserved("CCn1nc(-c2ccc3c(c2)CCN3C(=O)Cc2cc(F)cc(C(F)(F)F)c2)c2c(N)n[nH]c(=O)c21")
475
>>> valueobserved("CCn1nc(-c2ccc3c(c2)CCN3C(=O)CCc2ccccc2)c2c(N)n[nH]c(=O)c21")
191
>>> valueobserved("Nc1n[nH]c(=O)c2c1c(-c1ccc3c(c1)CCN3C(=O)Cc1cccc(OC(F)(F)F)c1)nn2CCC1CC1")
70.3

(P) CCn1cc(-c2ccc3c(c2)CCN3C(=O)Cc2cccc(OC(F)(F)F)c2)c2c(N)n[nH]c(=O)c21
(Q) CCn1nc(-c2ccc3c(c2)CCN3C(=O)Cc2ccc3c(c2)OCO3)c2c(N)n[nH]c(=O)c21
// query Min IC50? P | Q Output the label that corresponds to your choice.
// result P
(P: 60.5 nM, Q: 915 nM)

====

# assayRemarks: Half life in BALB/c mouse at 10 mg/kg, po
# Assay type: ADME, organism-based
# conditionNotes: BALB/c, in vivo
readout: half-life (h)

(A) Nc1n[nH]c(=O)c2c1c(-c1ccc3c(c1)CCN3C(=O)Cc1cccc(OC(F)(F)F)c1)nn2CC1CC1
(B) CC1(Cn2cc(-c3ccc4c(c3)CCN4C(=O)Cc3cccc(OC(F)(F)F)c3)c3c(N)n[nH]c(=O)c32)COC1
// query Problem: Given the entries A and B , determine which has the lower reported half-life. Your answer should be the label of the entry you select.
// result B
(B: 1.04 h, A: 2.58 h)

====

# assayRemarks: Tmax in BALB/c mouse at 10 mg/kg, po
# Assay type: ADME, organism-based
# conditionNotes: in vivo
readout: Tmax (min)

>>> valueobserved("CC1(Cn2cc(-c3ccc4c(c3)CCN4C(=O)Cc3cccc(OC(F)(F)F)c3)c3c(N)n[nH]c(=O)c32)COC1")
4.8

(a) Nc1n[nH]c(=O)c2c1c(-c1ccc3c(c1)CCN3C(=O)Cc1cccc(OC(F)(F)F)c1)nn2CC1CC1
(b) Nc1n[nH]c(=O)c2c1c(-c1ccc3c(c1)CCN3C(=O)Cc1cccc(C(F)(F)F)c1)cn2CC1CC1
// query Field: entry with larger Tmax (options a / b ). // return label of chosen record
// result a

====

What follows is a collection of pIC50 values obtained with Receptor-interacting serine/threonine-protein kinase 1 (Homo sapiens, UniProt Q13546).
pIC50: −log10 of the molar value.
readout: pIC50

Answered examples (5):
>>> valueobserved("CC(C)n1nc(-c2ccc3c(c2)CCN3C(=O)Cc2cccc(OC(F)(F)F)c2)c2c(N)n[nH]c(=O)c21")
7.18
>>> valueobserved("CCn1nc(-c2ccc3c(c2)CCN3C(=O)Cc2cccc(C(F)(F)F)c2)c2c(N)n[nH]c(=O)c21")
6.87
>>> valueobserved("Nc1n[nH]c(=O)c2c1c(-c1ccc3c(c1)CCN3C(=O)Cc1cccc(OC(F)(F)F)c1)nn2Cc1ccc(F)cc1")
6.54
>>> valueobserved("CC(C)Cn1cc(-c2ccc3c(c2)CCN3C(=O)Cc2cccc(OC(F)(F)F)c2)c2c(N)n[nH]c(=O)c21")
7.35
>>> valueobserved("CCn1nc(-c2ccc3c(c2)CCN3C(=O)Cc2ccc(OC(F)(F)F)cc2)c2c(N)n[nH]c(=O)c21")
6.75

(P) CC(C)CCn1nc(-c2ccc3c(c2)CCN3C(=O)Cc2cccc(OC(F)(F)F)c2)c2c(N)n[nH]c(=O)c21
(Q) Nc1n[nH]c(=O)c2c1c(-c1ccc3c(c1)CCN3C(=O)Cc1cccc(OC(F)(F)F)c1)nn2CCN1CCCC1
(R) Nc1n[nH]c(=O)c2c1c(-c1ccc3c(c1)CCN3C(=O)Cc1cccc(OC(F)(F)F)c1)nn2CC1CCC1
// query Sort by pIC50, descending. Labels, requested order.
// result R, P, Q

====

Receptor-interacting serine/threonine-protein kinase 1 (Homo sapiens) measurements of IC50, listed per entry.

// query Quick check: IC50 of CCn1cc(-c2ccc3c(c2)CCN3C(=O)Cc2cccc(OC(F)(F)F)c2)c2ncnc(N)c21 ?
// result > 1000 nM

// query Endpoint output: IC50 of NC(=O)c1cc(-c2ccc3c(c2)CCN3C(=O)Cc2cccc(OC(F)(F)F)c2)ccc1N . Value?
// result > 1000 nM

// query Param item = Nc1n[nH]c(=O)c2c1c(-c1ccc3c(c1)CCN3C(=O)Cc1cccc(OC(F)(F)F)c1)nn2CCC1CCCC1 ; retrieve measured IC50.
// result > 1000 nM

// query IC50 value for entry CCn1nc(-c2ccc3c(c2)CCN3C(=O)Cc2cccc(OC)c2)c2c(N)n[nH]c(=O)c21
// result > 1000 nM
